ASSAY_TARGET: Protein polybromo-1 (Homo sapiens, UniProt Q86U86)
Sequence (Q86U86 whole entry, the tested form may be a part): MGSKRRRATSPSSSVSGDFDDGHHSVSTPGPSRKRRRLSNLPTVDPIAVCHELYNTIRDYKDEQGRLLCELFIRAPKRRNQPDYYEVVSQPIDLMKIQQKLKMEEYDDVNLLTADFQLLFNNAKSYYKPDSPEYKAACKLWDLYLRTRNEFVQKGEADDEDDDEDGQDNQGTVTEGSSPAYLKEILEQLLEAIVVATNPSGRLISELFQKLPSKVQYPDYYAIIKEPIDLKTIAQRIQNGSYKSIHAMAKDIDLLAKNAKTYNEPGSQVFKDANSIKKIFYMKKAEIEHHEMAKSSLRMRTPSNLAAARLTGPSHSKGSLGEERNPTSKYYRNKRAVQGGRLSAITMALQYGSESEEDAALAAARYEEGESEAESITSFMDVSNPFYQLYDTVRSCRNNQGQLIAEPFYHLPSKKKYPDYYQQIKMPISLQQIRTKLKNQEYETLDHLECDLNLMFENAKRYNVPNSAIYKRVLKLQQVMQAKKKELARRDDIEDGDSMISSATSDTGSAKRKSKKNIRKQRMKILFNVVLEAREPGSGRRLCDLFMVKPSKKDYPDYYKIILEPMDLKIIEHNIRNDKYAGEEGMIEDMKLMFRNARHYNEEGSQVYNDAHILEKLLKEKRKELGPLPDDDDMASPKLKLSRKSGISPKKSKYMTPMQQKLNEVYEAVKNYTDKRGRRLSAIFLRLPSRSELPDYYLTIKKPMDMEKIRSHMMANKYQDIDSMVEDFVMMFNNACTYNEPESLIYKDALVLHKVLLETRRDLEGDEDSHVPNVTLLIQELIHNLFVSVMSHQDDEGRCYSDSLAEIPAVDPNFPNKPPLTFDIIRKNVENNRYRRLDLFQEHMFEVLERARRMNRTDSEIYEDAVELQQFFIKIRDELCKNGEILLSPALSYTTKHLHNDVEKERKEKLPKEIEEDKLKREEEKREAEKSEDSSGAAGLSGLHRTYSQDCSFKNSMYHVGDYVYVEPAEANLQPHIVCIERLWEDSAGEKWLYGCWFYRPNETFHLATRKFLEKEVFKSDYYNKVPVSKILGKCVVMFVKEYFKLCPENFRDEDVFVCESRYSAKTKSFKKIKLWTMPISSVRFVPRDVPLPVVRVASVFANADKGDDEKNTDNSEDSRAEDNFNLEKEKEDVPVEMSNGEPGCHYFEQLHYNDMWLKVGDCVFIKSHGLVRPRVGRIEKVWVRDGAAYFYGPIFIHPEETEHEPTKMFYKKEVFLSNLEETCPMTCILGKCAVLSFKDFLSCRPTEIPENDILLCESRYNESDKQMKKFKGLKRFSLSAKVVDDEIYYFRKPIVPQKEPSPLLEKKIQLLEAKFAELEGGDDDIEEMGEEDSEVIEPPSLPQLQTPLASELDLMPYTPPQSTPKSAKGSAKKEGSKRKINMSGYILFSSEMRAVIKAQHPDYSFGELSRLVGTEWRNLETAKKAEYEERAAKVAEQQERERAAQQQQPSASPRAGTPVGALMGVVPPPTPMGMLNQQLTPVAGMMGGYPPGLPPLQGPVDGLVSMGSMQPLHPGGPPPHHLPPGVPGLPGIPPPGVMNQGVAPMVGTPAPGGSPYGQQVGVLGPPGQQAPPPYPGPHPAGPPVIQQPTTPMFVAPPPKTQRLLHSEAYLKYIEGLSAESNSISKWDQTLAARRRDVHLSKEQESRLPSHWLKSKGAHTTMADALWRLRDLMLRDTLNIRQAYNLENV
ASSAY_NAME: Binding affinity to human partial length PBRM1 bromodomain 5 (S645 to D766 residues) expressed in bacterial expression system by BROMOscan assay
QUANTITY_MEASURED: Kd

Prompt line: Give its Kd value. Item: COc1cc2c(cc1-c1c(C)noc1C)[nH]c1nc(C)nc(-c3ccnc4ccccc34)c12
Response line: > 4 µM

###

ASSAY_NAME: AUC (0 to t) in SCID mouse at 25 mg/kg, po by LC/MS method
Format: ADME, organism-based
CONDITION_PARAMETERS: in vivo
QUANTITY_MEASURED: AUC(0-t) (ng·h/mL)
The response must be a number in ng·h/mL with no trailing unit.

Prompt line: Give its AUC(0-t) value. Item: COc1cc2c(cc1-c1c(C)noc1C)[nH]c1nc(C)nc(-c3ccnc4ccccc34)c12
Response line: 9140
